Source: patent US20260008815A1

system: Recombinant Human FGFR2 alpha (IIIc) Fc Chimera Protein (Homo sapiens)
Construct: Fc (chimera); purchased R&D systems 712-FR-050
Sequence (P21802 with tags, fused parts or gaps limits assumed): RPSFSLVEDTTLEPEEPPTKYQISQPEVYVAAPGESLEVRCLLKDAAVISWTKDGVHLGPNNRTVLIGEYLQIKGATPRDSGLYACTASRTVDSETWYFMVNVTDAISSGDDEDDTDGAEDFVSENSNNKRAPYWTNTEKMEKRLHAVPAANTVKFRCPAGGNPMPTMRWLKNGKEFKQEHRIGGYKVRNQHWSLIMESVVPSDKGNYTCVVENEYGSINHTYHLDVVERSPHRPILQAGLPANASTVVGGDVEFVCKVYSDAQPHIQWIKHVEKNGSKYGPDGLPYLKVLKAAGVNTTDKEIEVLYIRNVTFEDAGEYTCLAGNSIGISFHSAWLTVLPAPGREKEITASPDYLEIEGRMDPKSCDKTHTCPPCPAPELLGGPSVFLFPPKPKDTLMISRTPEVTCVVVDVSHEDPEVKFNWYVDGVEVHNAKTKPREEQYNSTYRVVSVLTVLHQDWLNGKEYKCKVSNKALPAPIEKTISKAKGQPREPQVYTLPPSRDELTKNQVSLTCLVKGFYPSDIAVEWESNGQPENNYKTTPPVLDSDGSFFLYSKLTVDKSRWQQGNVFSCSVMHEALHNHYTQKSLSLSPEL
assay: ELISA binding affinity of enzymatically synthesized peptide to FGFR
cond: ELISA luminescence signal at 10 nmol/L peptide, SEQ ID NO: 47 at 10 nmol/L standardized to 1; enzyme synthesis product
Bridge positions count the residues as written; N and C are the ends. Ends that are not written are not given here. COCH2 = acetyl group that carries the bridge
observed property: Evaluation result of binding affinity to FGFR

1. 221 (YCEENYLDGEQYQYFIYFK(COCH2)Y; thioether 2-19 (inferred)) [compound 221] :: A (0.7 or more)
2. 74 (ICPQNFINPVQWRYFQHYK(COCH2)N; thioether 2-19 (inferred)) [compound 74] :: A (0.7 or more)
